Tested on: SN12C renal
Test: NCI-60 one-dose screen, 48 h (100 = growth as untreated, 0 = no growth, -100 = all killed)
Conditions: 10 µM unless noted
Method: Growth inhibition of the SN12C human tumor cell line is measured as a screen for anti-cancer activity. Cells are grown in 96 well plates and exposed to the test compound for 48 hours. Compounds are tested at a single concentration, which is 10^-5 M for most compounds. The reported endpoint is percent growth (GI% or GIPRCNT), where numbers from 0 - 100% represent growth inhibition, and numbers from -100% - 0 represent cell death. For example, a value of 40 represents 60% growth inhibition. […]
Compounds without any hit were thinned out: in the full panel of roughly 83,000, 20% have a hit.
Give measured growth for each item. Keep answers brief.
Numbers only, in %.

// each molecule listed below needs its growth
1. CN1CCOCCN(C)Cc2ccc3ccc(cc3c2)CN(C)CCOCCN(C)Cc2ccc3ccc(cc3c2)C1
2. CCCN(CCSSCCNc1nc(N(C)O)nc(N(C)O)n1)c1nc(N(C)O)nc(N(C)O)n1
3. CCN(CC)CCCC(Cc1ccccc1)Nc1c2ccc(Cl)cc2nc2ccc(OC)cc12 (stereo not drawn)

92.6
69.7
73.6

// each molecule listed below needs its growth
1. Cc1cc(N2CCN(CC(=O)Nc3ccc4c(ccn4Cc4ccccc4)c3)CC2)nc(N2CCOCC2)n1
2. CCN(CC)C(=O)CC1=C(C)/C(=C/c2[nH]c(-c3ccc[nH]3)cc2OC)N=C1C

1. 87
2. 29.1

// each molecule listed below needs its growth
1. Cc1ccc(S(=O)(=O)c2nc(-c3ccccc3)oc2SCC(N)=O)cc1
2. COC1C(O)CC(OC2CC(OC3CC(O[C@@H]4C(=O)c5c(cc6cc(OC7CC(OC8CC(O)C(O)C(C)O8)C(O)C(C)O7)c(C)c(O)c6c5O)CC4[C@H](OC)[C@@H](O)C(C)=O)OC(C)C3O)OC(C)C2O)OC1C (stereo partly drawn)
3. C[N+]1=C(/C=C/c2ccccc2Cl)C(C)(C)c2ccccc21

1: 106; 2: 17; 3: 103
